Test system: Escherichia coli
experiment: Antibacterial activity against Escherichia coli BL21(DE3) measured after 20 hrs by microdilution method
Format: functional
value_type: MIC

Solved entries:
smiles_repr | obs_value
O=C(NO)[C@@H]1C[C@H](O)CN1C(=O)c1ccc(C#Cc2ccc(CN3CCCC3)cc2)cc1 | > 256 µM
O=C(NO)[C@H]1CCCN1C(=O)c1ccc(C#Cc2ccc(CN3CCOCC3)cc2)cc1 | > 256 µM
O=C(NO)[C@@H]1C[C@@H](O)CN1C(=O)c1ccc(C#Cc2ccccc2)cc1 | > 256 µM
COc1ccc(C#Cc2ccc(C(=O)N3C[C@@H](O)C[C@H]3C(=O)NO)cc2)cc1 | > 256 µM
O=C(NO)[C@@H]1CCCN1C(=O)c1ccc(C#Cc2ccc(CN3CCSCC3)cc2)cc1 | 128 µM

Exam item: If you can, please state the reported MIC value of O=C(NO)[C@@H]1CCCN1Cc1ccc(C#Cc2ccc(CN3CCSCC3)cc2)cc1 .
Marked response: 64 µM

Exam item: Also need O=C(NO)[C@@H]1CCCN1C(=O)c1ccc(C#Cc2ccccc2)cc1 , thanks.
Marked response: > 256 µM

Exam item: Also need O=C(NO)[C@@H]1C[C@H](O)CN1C(=O)c1ccc(C#Cc2ccc(CN3CCOCC3)cc2)cc1 , thanks.
Marked response: > 256 µM

Exam item: Also need O=C(NO)[C@@H]1C[C@H](F)CN1Cc1ccc(C#Cc2ccccc2)cc1 , thanks.
Marked response: > 256 µM

Exam item: Also need O=C(NO)[C@@H]1C[C@@H](O)CN1C(=O)c1ccc(C#Cc2ccc(F)cc2)cc1 , thanks.
Marked response: > 256 µM

Data provenance: ChEMBL document CHEMBL4392848
